All figures here come from patent US20220000982A1.

EC50, hGLP-1-R CRE Luc, 1% HSA (*) for assorted binders
assaySystem: human GLP-1 receptor (human, UniProt P43220 24-463)
methodSummary: cell-based or functional assay
*1 amine or outer side, *2 acyl side, *3 side chain or, on linkers, in order; H or OH if unused. Where no end group is shown, it is not given here. Side-chain parts run from the residue outwards. [ ]: non-standard residue; d: D form. The star is where a group is joined. C20 diacid = O=C(O)CCCCCCCCCCCCCCCCCCC(=O)*; C18 diacid = O=C(O)CCCCCCCCCCCCCCCCC(=O)*; γGlu = O=C(O)[C@H](CCC(=O)[*:2])N[*:1]; Trx = NC[C@H]1CC[C@H](C(=O)O)CC1; Nle = CCCC[C@H](N)C(=O)O; AEEA = NCCOCCOCC(=O)O; Aib = CC(C)(N)C(=O)O

{"columns": ["binder", "EC50, hGLP-1-R CRE Luc, 1% HSA (*)"],
 "data": [
  ["Y[Aib]EGTFISDYSIA[Nle]DKIHQQDFVK([γGlu-γGlu-γGlu-C18 diacid])WLLAQKGKENDWKHNITQ", "> 100 nM"],
  ["Ac-[dY][Aib]EGTFISDYSIA[Nle]DKIRQQDFVK([γGlu-γGlu-γGlu-γGlu-Trx-C20 diacid])WLLAQKP-NH2", "> 10 nM"],
  ["Y[Aib]EGTFISDYSIA[Nle]DKIRQQDFVK([γGlu-γGlu-γGlu-C18 diacid])WLLAQKGKENDWKHNITQ", "> 100 nM"],
  ["Y[Aib]EGTFISDYSIA[Nle]DKIHQQDFVK([γGlu-γGlu-γGlu-C18 diacid])WLLAQKG", "> 100 nM"],
  ["Y[Aib]EGTFISDYSIALDKIHQQDFVK([AEEA-AEEA-γGlu-C18 diacid])WLLAQKGKKNDWKHNITQ", "> 100 nM"]
]}
